The reported numbers originate from PubChem BioAssay (NCI).

Reported values of TGI for individual entries
Tested on: M19-MEL melanoma
Experiment: NCI tumour cell line growth inhibition, 48 h

{"compound": "COc1cccc2c1[C@]1(O)C(O)CCCC21 (stereo partly specified)", "TGI": "> 100 µM"}
{"compound": "COC(=O)/C(=N/O)C(C(=O)OC)C(=O)C(=O)Nc1c(Cl)cc(C)cc1S(=O)(=O)O (stereo unspecified)", "TGI": "> 100 µM"}
{"compound": "Cc1cc(Cl)ccc1NC(=O)CCCC(=O)C(C(=O)c1ccccc1)c1ccccc1 (stereo unspecified)", "TGI": "> 100 µM"}
{"compound": "C[C@@H](c1ccccc1)N(CC#N)C1CCC[C@H]1O (stereo partly specified)", "TGI": "> 100 µM"}
{"compound": "CCCCCCc1cn([C@H]2C[C@H](O)[C@@H](CO)O2)c(=O)[nH]c1=O", "TGI": "> 100 µM"}
{"compound": "C=C1CC(OC)(C(O)C(=O)N[C@H]2OCO[C@H]3C2O[C@H](C[C@H](O)COC)C(C)(C)C3OC)O[C@H](C)[C@@H]1C (stereo partly specified)", "TGI": "> 0.00772 µM"}

----------
Reported values of TGI for individual entries
Tested on: TK-10 renal
Test: NCI tumour cell line growth inhibition, 48 h

{"molecule": "C#CCOc1cccc(Nc2ncc3ncn(C4CCN(C(=O)CCl)C4)c3n2)c1 (stereo not given)", "target-system": "TK-10 renal", "TGI": "> 62.5 µM"}
{"molecule": "[N-]=[N+]=Nc1c(Br)c(=O)[nH]c(=O)n1COCCO", "target-system": "TK-10 renal", "TGI": "> 100 µM"}
{"molecule": "COc1cc(C(=O)C/C(CCC(=O)Nc2ccc(Cl)cc2Cl)=N/Nc2nnc(C)n2N)ccc1O", "target-system": "TK-10 renal", "TGI": "> 100 µM"}
{"molecule": "c1ccc(-c2cnc3nc4ccccc4nc3n2)cc1", "target-system": "TK-10 renal", "TGI": "20.8 µM"}
{"molecule": "COc1ccccc1N1C(=O)/C(=C\\c2cccc(Oc3ccccc3)c2)S(=O)(=O)C1c1ccccc1 (stereo not given)", "target-system": "TK-10 renal", "TGI": "> 100 µM"}

----------
System: M14 melanoma
Assay: NCI tumour cell line growth inhibition, 48 h; in the data active means GI50 below about 0.43 µM; inactive means the rest
Possible outcomes: true (1) (active), false (0) (inactive)

{"compound": "FC(F)(F)c1cc(NC2=NCCN=C(Nc3cc(C(F)(F)F)cc(C(F)(F)F)c3)SS2)cc(C(F)(F)F)c1", "target-system": "M14 melanoma", "qualitative-label": "false (0)"}
{"compound": "NC(=S)N/N=C\\c1nccc2c(C(F)(F)C(F)(F)C(F)(F)F)cccc12", "target-system": "M14 melanoma", "qualitative-label": "true (1)"}
{"compound": "O=C(Nc1cccc([N+](=O)[O-])c1)c1cc2ccccc2cc1O", "target-system": "M14 melanoma", "qualitative-label": "false (0)"}
{"compound": "c1cc2ccc1CNCCN1CCNCc3ccc(cc3)Oc3ccc(cc3)CNCCN(CCNCc3ccc(cc3)O2)CCNCc2ccc(cc2)Oc2ccc(cc2)CNCC1", "target-system": "M14 melanoma", "qualitative-label": "false (0)"}
{"compound": "O=C(Nc1ccc(-c2ccnc(Nc3ccc(N4CCOCC4)cc3)n2)cc1)C1CCCN1 (stereo not given)", "target-system": "M14 melanoma", "qualitative-label": "false (0)"}
{"compound": "Cc1cc(S(=O)(=O)Nc2nc3cc(-c4ccsc4)sc3c(=O)n2N)c(S)cc1Cl", "target-system": "M14 melanoma", "qualitative-label": "false (0)"}
{"compound": "Cc1[nH]n(-c2ccccc2)c(=O)c1C(=O)c1ccccc1", "target-system": "M14 melanoma", "qualitative-label": "false (0)"}
{"compound": "C/C=C/C(=O)[O-].N.N.N.N.N.[Co+3].[O-][Cl+3]([O-])([O-])[O-]", "target-system": "M14 melanoma", "qualitative-label": "false (0)"}
{"compound": "C(#Cc1ccccc1C#Cc1ccccn1)c1ccccn1", "target-system": "M14 melanoma", "qualitative-label": "false (0)"}
{"compound": "C=C1C[C@@H]2[C@H](CC[C@]3(C)C(=O)CC[C@@H]23)[C@@]2(C)C=CC(=O)C=C12", "target-system": "M14 melanoma", "qualitative-label": "false (0)"}
